I'd appreciate it if you could supply IC50 values for the items below.
target: Bcr/Abl fusion protein (Homo sapiens, UniProt P00519); experiment: Inhibition of BCR-ABL p210; format: protein assay
Sequence (P00519 whole entry, the tested form may be a part): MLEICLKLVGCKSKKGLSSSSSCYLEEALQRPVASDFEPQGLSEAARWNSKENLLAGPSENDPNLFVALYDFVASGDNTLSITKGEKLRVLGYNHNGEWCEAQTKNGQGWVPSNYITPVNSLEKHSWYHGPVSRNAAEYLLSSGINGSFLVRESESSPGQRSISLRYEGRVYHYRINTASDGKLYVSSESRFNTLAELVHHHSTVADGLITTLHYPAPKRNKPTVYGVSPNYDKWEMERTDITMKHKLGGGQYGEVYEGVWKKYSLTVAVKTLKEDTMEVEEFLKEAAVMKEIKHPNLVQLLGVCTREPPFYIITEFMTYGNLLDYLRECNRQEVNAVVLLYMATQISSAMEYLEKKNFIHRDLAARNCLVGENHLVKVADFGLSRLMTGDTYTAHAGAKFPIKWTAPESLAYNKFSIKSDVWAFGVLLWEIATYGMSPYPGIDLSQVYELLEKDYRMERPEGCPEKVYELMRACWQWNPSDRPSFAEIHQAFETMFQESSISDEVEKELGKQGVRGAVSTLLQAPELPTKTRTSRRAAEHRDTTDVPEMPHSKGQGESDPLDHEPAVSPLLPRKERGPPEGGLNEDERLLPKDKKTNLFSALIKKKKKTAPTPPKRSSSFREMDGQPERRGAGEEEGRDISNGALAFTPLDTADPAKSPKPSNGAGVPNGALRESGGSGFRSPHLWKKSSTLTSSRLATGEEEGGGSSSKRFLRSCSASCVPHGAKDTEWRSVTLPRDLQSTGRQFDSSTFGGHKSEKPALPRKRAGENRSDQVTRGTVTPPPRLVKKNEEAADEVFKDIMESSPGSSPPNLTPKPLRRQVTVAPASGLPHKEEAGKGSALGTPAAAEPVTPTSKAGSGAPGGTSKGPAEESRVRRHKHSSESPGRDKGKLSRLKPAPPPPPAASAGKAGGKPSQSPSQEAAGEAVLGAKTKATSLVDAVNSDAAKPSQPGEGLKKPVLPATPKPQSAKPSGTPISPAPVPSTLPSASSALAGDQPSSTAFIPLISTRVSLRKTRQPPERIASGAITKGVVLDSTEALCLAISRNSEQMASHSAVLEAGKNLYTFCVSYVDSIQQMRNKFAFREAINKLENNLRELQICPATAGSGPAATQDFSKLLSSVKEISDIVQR
Sequence (P11274 whole entry, further chain, the tested form may be a part): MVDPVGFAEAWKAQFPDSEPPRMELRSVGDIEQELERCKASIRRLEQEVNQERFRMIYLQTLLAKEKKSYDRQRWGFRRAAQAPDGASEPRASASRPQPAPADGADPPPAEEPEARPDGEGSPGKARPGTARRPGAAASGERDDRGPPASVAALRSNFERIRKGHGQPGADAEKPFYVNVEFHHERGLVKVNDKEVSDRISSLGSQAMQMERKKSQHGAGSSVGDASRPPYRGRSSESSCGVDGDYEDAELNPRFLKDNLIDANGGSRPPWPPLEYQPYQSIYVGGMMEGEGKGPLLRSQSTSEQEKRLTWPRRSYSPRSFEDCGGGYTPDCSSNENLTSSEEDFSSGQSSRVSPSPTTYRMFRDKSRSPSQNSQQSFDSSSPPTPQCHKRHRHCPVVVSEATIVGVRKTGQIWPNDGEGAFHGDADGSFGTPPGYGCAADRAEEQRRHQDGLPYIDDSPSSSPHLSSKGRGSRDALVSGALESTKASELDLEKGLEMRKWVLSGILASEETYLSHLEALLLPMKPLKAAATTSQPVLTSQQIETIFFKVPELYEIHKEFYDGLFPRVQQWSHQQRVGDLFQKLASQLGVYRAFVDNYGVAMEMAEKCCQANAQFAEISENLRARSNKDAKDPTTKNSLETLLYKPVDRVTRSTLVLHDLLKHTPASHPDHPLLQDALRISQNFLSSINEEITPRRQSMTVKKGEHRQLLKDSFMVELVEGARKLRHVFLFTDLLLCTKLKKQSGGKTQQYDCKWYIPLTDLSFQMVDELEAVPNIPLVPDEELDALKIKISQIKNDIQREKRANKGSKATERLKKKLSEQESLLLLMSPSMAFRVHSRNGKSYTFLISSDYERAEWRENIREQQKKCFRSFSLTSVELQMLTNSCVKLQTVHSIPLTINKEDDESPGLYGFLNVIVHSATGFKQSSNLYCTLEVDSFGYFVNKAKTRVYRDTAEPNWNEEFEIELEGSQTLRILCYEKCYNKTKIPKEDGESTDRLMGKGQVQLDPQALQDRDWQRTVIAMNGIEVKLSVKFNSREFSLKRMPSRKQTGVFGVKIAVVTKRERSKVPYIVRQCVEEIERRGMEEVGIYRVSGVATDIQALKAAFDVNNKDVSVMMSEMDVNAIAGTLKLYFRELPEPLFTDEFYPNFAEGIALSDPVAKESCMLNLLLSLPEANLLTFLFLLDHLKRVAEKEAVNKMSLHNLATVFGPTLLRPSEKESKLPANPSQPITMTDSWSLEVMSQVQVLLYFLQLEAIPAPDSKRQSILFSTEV

Asked: Would you mind telling me what IC50 value was observed for Nc1ncnc2c1c(-c1cccc(OCc3ccccc3)c1)cn2[C@H]1C[C@H](N2CCCC2)C1 ?
Given back: > 10 µM

Asked: Would you mind telling me what IC50 value was observed for Nc1ncnc2c1c(-c1cccc(OCc3ccccc3)c1)cn2[C@H]1C[C@@H](CN2CCC2)C1 ?
Given back: > 10 µM

* * *

measurement-kind: IC50
Show the value, then the unit it is measured in.

Asked: So what IC50 did Nc1ncnc2c1c(-c1cccc(OCc3ccccc3)c1)cn2[C@H]1C[C@H](N2CCCC2)C1 get with Insulin receptor (Homo sapiens)?
Given back: 2.8 µM

* * *

measurement-kind: pIC50
Just so you know, pIC50 here is -log10 of the concentration in molar units; reply with that number alone.

Asked: So what pIC50 did Nc1ncnc2c1c(-c1cccc(OCc3ccccc3)c1)cn2[C@H]1C[C@H](N2CCCC2)C1 get with Insulin-like growth factor 1 receptor (Homo sapiens)?
Given back: 6.77

* * *

molecular target: Insulin-like growth factor 1 receptor (Homo sapiens); test: Inhibition of GST-tagged human IGF1R expressed in baculovirus-infected Sf21 cells by scintillation proximity assay
measurement-kind: pIC50
Just so you know, pIC50 here is -log10 of the concentration in molar units; reply with that number alone.

Asked: Would you mind telling me what pIC50 value was observed for CN1CCN(c2ccc(C(=O)Nc3n[nH]c4c3CN(S(=O)(=O)c3cc(F)cc(F)c3)C4(C)C)cc2NC(=O)c2cc[nH]c2)CC1 ?
Given back: 7.05

* * *

biological target: Insulin-like growth factor 1 receptor (Homo sapiens, UniProt P08069); test: Inhibition for IGF1R-induced S6 ribosomal protein phosphorylation in growth factor-stimulated NHDF
Sequence (P08069 31-736 limits assumed): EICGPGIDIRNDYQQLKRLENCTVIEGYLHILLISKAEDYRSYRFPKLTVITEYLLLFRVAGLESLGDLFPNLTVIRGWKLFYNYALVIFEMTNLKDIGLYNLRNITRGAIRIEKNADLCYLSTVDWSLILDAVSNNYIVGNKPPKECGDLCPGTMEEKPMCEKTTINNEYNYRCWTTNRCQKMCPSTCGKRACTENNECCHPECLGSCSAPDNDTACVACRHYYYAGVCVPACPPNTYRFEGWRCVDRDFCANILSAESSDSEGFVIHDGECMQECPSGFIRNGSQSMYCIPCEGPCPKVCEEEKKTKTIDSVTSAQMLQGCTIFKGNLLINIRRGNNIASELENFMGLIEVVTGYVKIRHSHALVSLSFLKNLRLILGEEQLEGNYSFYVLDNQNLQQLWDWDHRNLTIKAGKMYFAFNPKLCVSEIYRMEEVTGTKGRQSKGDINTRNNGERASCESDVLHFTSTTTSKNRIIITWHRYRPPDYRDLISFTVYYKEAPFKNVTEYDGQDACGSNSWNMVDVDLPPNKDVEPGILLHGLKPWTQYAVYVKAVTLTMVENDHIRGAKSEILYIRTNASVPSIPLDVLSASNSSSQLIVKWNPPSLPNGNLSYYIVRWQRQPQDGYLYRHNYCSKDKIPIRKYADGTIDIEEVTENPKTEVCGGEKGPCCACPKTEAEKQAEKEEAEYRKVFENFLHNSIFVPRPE
Sequence (P08069 741-1367 limits assumed): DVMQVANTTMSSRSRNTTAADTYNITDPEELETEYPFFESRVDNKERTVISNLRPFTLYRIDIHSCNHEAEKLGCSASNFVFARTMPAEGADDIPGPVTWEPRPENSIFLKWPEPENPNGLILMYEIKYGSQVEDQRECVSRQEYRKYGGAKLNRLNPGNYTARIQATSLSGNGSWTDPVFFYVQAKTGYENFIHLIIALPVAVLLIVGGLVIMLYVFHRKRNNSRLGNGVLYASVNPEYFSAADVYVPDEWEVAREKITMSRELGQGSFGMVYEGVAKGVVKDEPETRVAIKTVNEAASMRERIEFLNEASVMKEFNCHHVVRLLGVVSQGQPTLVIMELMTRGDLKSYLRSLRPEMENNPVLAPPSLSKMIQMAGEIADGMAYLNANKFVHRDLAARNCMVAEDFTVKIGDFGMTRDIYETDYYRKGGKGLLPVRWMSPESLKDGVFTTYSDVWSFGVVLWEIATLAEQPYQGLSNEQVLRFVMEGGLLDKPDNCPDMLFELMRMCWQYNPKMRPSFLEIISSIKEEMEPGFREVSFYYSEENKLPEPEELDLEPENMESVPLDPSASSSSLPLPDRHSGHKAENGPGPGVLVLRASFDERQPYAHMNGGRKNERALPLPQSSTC
measurement-kind: pIC50
Just so you know, pIC50 here is -log10 of the concentration in molar units; reply with that number alone.

Asked: Would you mind telling me what pIC50 value was observed for CN1CCN(c2ccc(C(=O)Nc3n[nH]c4c3CN(S(=O)(=O)c3cc(F)cc(F)c3)CC4)cc2)CC1 ?
Given back: 5.52

* * *

biological target: UniProtKB P08069; experiment: Inhibition of IGF1R in IGF1-stimulated human MCF7 cells by Western blot analysis; format: cell-based
measurement-kind: IC50

Asked: So what IC50 did CN1CCN(c2ccc(C(=O)Nc3n[nH]c4c3CN(S(=O)(=O)c3cc(F)cc(F)c3)C4(C)C)cc2NC(=O)c2cc[nH]c2)CC1 get with UniProtKB P08069?
Given back: 300 nM

* * *

I'd appreciate it if you could supply pIC50 values for the items below.
Just so you know, pIC50 here is -log10 of the concentration in molar units; reply with that number alone.

Asked: So what pIC50 did Nc1nccn2cnc(-c3ccc4ccc(-c5ccccc5)nc4c3C3CC(N4CC4)C3)c12 (centres undefined) get with Insulin-like growth factor 1 receptor (Homo sapiens, UniProt P08069)?
Given back: 7.70

Asked: So what pIC50 did O=C(O[C@@H]1Cc2ccccc2O[C@@H]1c1cc(O)c(O)c(O)c1)c1cc(O)c(O)c(O)c1 get with Insulin-like growth factor 1 receptor (Homo sapiens, UniProt P08069)?
Given back: 4.85

Asked: So what pIC50 did Cc1cc(N2CCOCC2)cc2[nH]c(-c3c(NC[C@H](O)c4ccccc4Cl)cc[nH]c3=O)nc12 get with Insulin-like growth factor 1 receptor (Homo sapiens, UniProt P08069)?
Given back: 6.08

Asked: So what pIC50 did N#C/C(=C\c1ccc(O)c(O)c1)C(=O)c1ccc(O)c(O)c1 get with Insulin-like growth factor 1 receptor (Homo sapiens, UniProt P08069)?
Given back: 7.21

The measured values listed here are drawn from ChEMBL document CHEMBL1152979.
